Each recorded value in this set is attributed to ChEMBL document CHEMBL4715736.

- System: HT-29
- measurement-description: Growth inhibition of human HT-29 cells assessed as cell growth at 10 uM incubated for 48 hrs by sulforhodamine B assay relative to control
- Type: functional
- study-conditions: read-out: Activity
quantity-measured: growth at 10 µM
Put down the number, then write its unit next to it.

COc1cccc(NC(=O)c2sc3nc4c(cc3c2N)CN(Cc2ccccc2)CC4)c1
16%
Cc1ccc(NC(=O)c2sc3nc4c(cc3c2N)C(=O)CCC4)cc1C
1%
Cc1ccc(S(=O)(=O)n2ccc(-c3ccc(OCCCF)cc3)n2)cc1
86.4%
Nc1c(C(=O)N(c2ccccc2)c2ccccc2)sc2nc3c(cc12)C(=O)CCC3
84.5%
CC(=O)c1cccc(NC(=O)c2sc3nc4c(cc3c2N)C(=O)CCC4)c1
96.9%
COc1ccc(S(=O)(=O)n2ccc(-c3ccc4c(c3)CCC(C)(C)O4)n2)cc1
84.5%
CCc1ccccc1NC(=O)c1sc2nc3c(cc2c1N)C(=O)CCC3
6%
Cc1cccc(NC(=O)c2sc3nc4c(cc3c2N)C(=O)CCC4)c1
-1%
O=S(=O)(c1ccc(Br)cc1)n1ccc(-c2ccc(OCCCF)cc2)n1
89.4%

Okay, next one:
Give the measured growth at 10 µM of CCOc1ccc(-c2cc(N)n(S(=O)(=O)c3ccc(OC)cc3)n2)cc1 . 105%
